Biological target: G12D-mutant human KRAS (amino acid residues 1-188) (Homo sapiens, UniProt P01116, G12D)
Construct: G12D or G12C-mutant human KRAS (amino acid residues 1-188) with FLAG tag; made in house; host or cells: E. coli
Sequence (P01116 1-188 isoform P01116-2 G12D): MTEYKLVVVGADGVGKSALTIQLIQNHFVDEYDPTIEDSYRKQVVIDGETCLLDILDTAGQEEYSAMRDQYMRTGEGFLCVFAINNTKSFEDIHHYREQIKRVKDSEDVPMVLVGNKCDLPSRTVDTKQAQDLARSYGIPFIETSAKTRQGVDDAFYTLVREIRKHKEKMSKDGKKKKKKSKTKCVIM
Assay: KRAS Binding Disruption Assay (AlphaScreen; biotinylated KRpep-2d analogue or RAF1-RBD), G12D
Conditions: KRAS G12D; geometric mean; read-out: KRAS GMean IC50 (uM) MUTATION: G12D
Entries annotated with measured IC50

See these solved cases before continuing.
CN1CCC[C@H]1COc1nc(N2C[C@H]3CC[C@@H](C2)N3)c2ccc(-c3cccc4[nH]ncc34)cc2n1 :: 100 to 1000 µM
CN1CCC[C@H]1COc1nc(N2C[C@H]3CC[C@@H](C2)N3)c2ccc(-c3c[nH]c4cccc(Cl)c34)c(F)c2n1 [P-0654] :: 0.0001 to 10 µM
CC(C)(O)C1CN(c2nc(N3C[C@H]4CC[C@@H](C3)N4)c3ccc(-c4cc(O)cc5ccccc45)c(F)c3n2)C1 :: 0.0001 to 10 µM
CN1CCC[C@H]1COc1nc(N2C[C@@H]3C[C@H]2CN3)c2ccc(-c3cc(O)cc4ccccc34)cc2n1 :: 0.0001 to 10 µM

Notebook entry, G12D-mutant human KRAS (amino acid residues 1-188) (Homo sapiens, UniProt P01116, G12D) assay: IC50 of CC(=O)NCC(=O)N1[C@@H]2CC[C@H]1CN(c1nc(OCC34CCCN3CCC4)nc3cc(-c4cc(O)cc5ccccc45)ccc13)C2 = ?
0.0001 to 10 µM

And what about the molecule CN1CCC(Oc2nc(N3C[C@H]4CC[C@@H](C3)N4)c3cc(Cl)c(-c4cc(O)cc5ccccc45)c(F)c3n2)CC1 ?
0.0001 to 10 µM

And what about the molecule CN1CCC[C@H]1COc1nc(N2[C@@H]3CC[C@H]2CN(C(=O)Cn2ccnc2)C3)c2ccc(-c3cc(O)cc4ccccc34)cc2n1 ?
10 to 100 µM

----------
Target: G12D-mutant human KRAS (amino acid residues 1-188) (Homo sapiens, UniProt P01116, G12D)
Construct: G12D or G12C-mutant human KRAS (amino acid residues 1-188) with FLAG tag; made in house; host or cells: E. coli
Assay: KRAS Binding Disruption Assay (AlphaScreen; biotinylated KRpep-2d analogue or RAF1-RBD), G12D
Details: KRAS G12D; geometric mean; read-out: KRAS GMean IC50 (uM) MUTATION: G12D
recordedMetric: IC50

See these solved cases before continuing.
CN1CCC[C@H]1COc1nc(N2C[C@H]3CC[C@@H](C2)N3)c2cc(F)c(-c3c[nH]c4cc(C#N)ccc34)c(F)c2n1 :: 10 to 100 µM
CN(C)C(=O)CCOc1nc(N2C[C@H]3CC[C@@H](C2)N3)c2ccc(-c3cc(O)cc4ccccc34)cc2n1 :: 0.0001 to 10 µM
O=C(c1ccccn1)N1[C@@H]2CC[C@H]1CN(c1nc(OCC34CCCN3CCC4)nc3cc(-c4cc(O)cc5ccccc45)ccc13)C2 :: 10 to 100 µM
COC(C)(C)COc1nc(N2C[C@H]3CC[C@@H](C2)N3)c2ccc(-c3cc(O)cc4ccccc34)c(F)c2n1 :: 0.0001 to 10 µM
CN1CC[C@@H](NS(=O)(=O)N2[C@@H]3CC[C@H]2CN(c2nc(OCC45CCCN4CCC5)nc4c(F)c(-c5cc(O)cc6ccccc56)ccc24)C3)C1 :: 0.0001 to 10 µM

# get_value(readout='IC50', item= CN1CCC[C@H]1COc1nc(N2[C@@H]3CC[C@H]2CN(C(=O)NCC(N)=O)C3)c2ccc(-c3cc(O)cc4ccccc34)cc2n1 )
10 to 100 µM

And what about the compound CN1CCC[C@H]1COc1nc(N2C[C@H]3CC[C@@H](C2)N3)c2ccc(-c3nccc4cccc(Cl)c34)c(F)c2n1 ?
10 to 100 µM

And what about the compound CN(C)c1ccc(Oc2nc(N3C[C@H]4CC[C@@H](C3)N4)c3cc(Cl)c(-c4c(O)cccc4F)c(F)c3n2)cc1 ?
0.0001 to 10 µM

And what about the compound O=C(NC1CCNCC1)N1[C@@H]2CC[C@H]1CN(c1nc(OCC34CCCN3CCC4)nc3cc(-c4cc(O)cc5ccccc45)ccc13)C2 ?
0.0001 to 10 µM

And what about the compound CN1CCC[C@H]1COc1nc(N2C[C@H]3CC[C@@H](C2)N3)c2ccc(-c3cc([N+](=O)[O-])cc4ccccc34)cc2n1 ?
10 to 100 µM

And what about the compound CN1CCC[C@H]1COc1nc(N2C[C@H]3CC[C@@H](C2)N3)c2ccc(-c3c[nH]c4ccc(Cl)cc34)cc2n1 ?
10 to 100 µM

And what about the compound O=C(Nc1cn[nH]c1)N1[C@@H]2CC[C@H]1CN(c1nc(OCC34CCCN3CCC4)nc3cc(-c4cc(O)cc5ccccc45)ccc13)C2 ?
0.0001 to 10 µM

And what about the compound CN1CCC[C@H]1COc1nc(N2C[C@H]3CC[C@@H](C2)N3C(=O)CO)c2ccc(-c3cc(O)cc4ccccc34)c(F)c2n1 ?
0.0001 to 10 µM
